src = the supplement of paper PMC11451515

Reported cell viability values follow for various molecules
tested on: NOMO1; experiment: cell viability relative to DMSO control; higher = less cytotoxic; details: RPMI 5 mM glucose + 10% FBS; 48 h; 0.0632 µM
Dear colleague, please return just the value in %, with no unit written.

MOLECULE	MEASURED ENDPOINT	UNIT SYMBOL	EXPERIMENTAL VALUE
Nc1ncnc2c1nc(Cl)n2[C@@H]1O[C@H](CO)[C@@H](O)[C@H]1O	cell viability	%	120

Per the records, this molecule ( CC(C)(O)/C=C\C(=O)[C@](C)(O)[C@H]1[C@H](O)C[C@]2(C)[C@@H]3CC=C4[C@@H](C=C(O)C(=O)C4(C)C)[C@]3(C)C(=O)C[C@@]12C ) has cell viability equal to 89.2

Lab note: CON(C)C(=O)N1/N=C(S[C@@]1(CCCN)C2=CC=CC=C2)/C3=CC(=CC=C3F)F gave cell viability of 23.8

Item: C[S+](=O)([O-])c1ccc(Oc2cc(F)cc(C#N)c2)c2c1[C@H](O)C(F)(F)C2 | cell viability: 119

cell viability for COc1cc(C(=O)NS(=O)(=O)c2ccccc2C)ccc1Cc1cn(C)c2ccc(NC(=O)OC3CCCC3)cc12 is 77.6

According to the records, this molecule CO/N=C(\C(=O)N[C@@H]1C(=O)N2C(C(=O)OCOC(=O)C(C)(C)C)=C(/C=C\c3scnc3C)CS[C@H]12)c1csc(N)n1 displays cell viability of 104
